- Test system: P93_24
- method_summary: qHTS profiling for inhibitors of Plasmodium falciparum proliferation (AID 504749); also: nearly all actives have a fitted effect of over 60% in size; also: potency is read from the fitted curve at half-maximal effect
- test_parameters: P. falciparum in erythrocytes, SYBR Green DNA, 72 h; series mostly up to 28.7 µM
Records with an inconclusive call do not appear. Calls of active or inactive are those of the source. Calls follow the shape of the dose curve; as a rule, active = well fitted inhibition curve with a large enough effect; inconclusive = small, poorly fitted or top-dose-only effect; inactive = flat fitted curve, though single readings scatter. Peptide text beside a SMILES is read from it.
recorded_endpoint: Potency

Answered examples (8):
compound | system_tested | recorded_endpoint | result
CC(=O)Oc1cc(C)c(OC(C)=O)c2ccccc12 | P93_24 | Potency | 7940 nM (active)
CCCCCCC(O)C/C=C/CCCCCCCC(=O)O (stereo unspecified) | P93_24 | Potency | inactive
CCCCC/C=C\C/C=C\CCCCCCCC(=O)O | P93_24 | Potency | inactive
CCCC(=O)Nc1ncnc2c1ncn2C1OC2COP(=O)(O)OC2C1OC(=O)CCC (stereo unspecified) | P93_24 | Potency | inactive
C#CCOc1ccc2c(C)cc(=O)oc2c1 | P93_24 | Potency | inactive
COC(C(=O)C(O)C(C)O)C1Cc2cc3cc(OC4CC(OC5CC(O)C(O)C(C)O5)C(O)C(C)O4)c(C)c(O)c3c(O)c2C(=O)C1OC1CC(OC2CC(OC3CC(C)(O)C(O)C(C)O3)C(O)C(C)O2)C(O)C(C)O1 (stereo unspecified) | P93_24 | Potency | 178 nM (active)
CC[C@@]1(O)C(=O)OCc2c1cc1n(c2=O)Cc2cc3c([N+](=O)[O-])cccc3nc2-1 | P93_24 | Potency | 7940 nM (active)
IC(I)I | P93_24 | Potency | inactive

Prompt: Could you tell me which Potency is on file for COC(F)(F)C(Cl)Cl ?
Response: inactive

Prompt: What about CC1=CCC(C(C)(C)O)CC1 (stereo unspecified) ?
Response: inactive

Prompt: What about CO[C@H](C(=O)[C@@H](O)[C@@H](C)O)C1Cc2cc3cc(O[C@H]4C[C@@H](O[C@H]5C[C@@H](O)[C@H](O)[C@@H](C)O5)[C@@H](O)[C@@H](C)O4)c(C)c(O)c3c(O)c2C(=O)[C@H]1O[C@H]1C[C@@H](O[C@H]2C[C@@H](O[C@H]3C[C@](C)(O)[C@H](O)[C@@H](C)O3)[C@H](O)[C@@H](C)O2)[C@H](O)[C@@H](C)O1 (stereo partly specified) ?
Response: 112 nM (active)

Prompt: What about COC(=O)[C@H]1[C@H]2C[C@@H]3c4[nH]c5ccccc5c4CCN3C[C@H]2C[C@@H](OC(=O)c2cc(OC)c(OC)c(OC)c2)[C@@H]1OC ?
Response: 126 nM (active)

Prompt: What about CCCCCCOc1ccc(C(=N)N(CCCC)CCCC)c2ccccc12 ?
Response: inactive

Prompt: What about COc1ccc2c3c1O[C@H]1C[C@@H](O)C=C[C@@]31CCN(C)C2 ?
Response: inactive

Prompt: What about CC(C(=O)O)c1ccc(N2Cc3ccccc3C2=O)cc1 (stereo unspecified) ?
Response: inactive

Prompt: What about Cc1c(C)c2c(c(C)c1O)CC[C@@](C)(CCC[C@H](C)CCC[C@H](C)CCCC(C)C)O2 ?
Response: inactive

Prompt: What about COCC(=O)Nc1cc(Sc2ccccc2)ccc1N=C(NC(=O)OC)NC(=O)OC ?
Response: inactive

Prompt: What about CCCCCCCCCCCC[n+]1ccc2ccccc2c1 ?
Response: 631 nM (active)

Prompt: What about CC(NNC(=O)c1ccccc1)c1ccccc1 (stereo unspecified) ?
Response: inactive

Prompt: What about CC(=O)N[C@@H](CC(=O)O)C(=O)N[C@@H](CCC(=O)O)C(=O)O (Ac-Asp-Glu-OH) ?
Response: inactive

Prompt: What about CCOC(=O)C1=CC2(CC)CCCN3CCc4c(n1c1ccccc41)C32 (stereo unspecified) ?
Response: 7940 nM (active)
